# Tested on: K4 kissing-loop RNA reporter;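 further: bound reporter read as fluorescence of individual clusters on recovered sequencing chips by microscopy, with normalized cluster intensities fitted with a binding model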
# experiment: apparent KD of K4 kissing-loop reporter; higher = weaker reporter binding
# condition.label: Eterna round: R107; input ligand: arginine 13.2 mM
# binarize apparent KD of K4 kissing-loop reporter: threshold 200 nM inclusive, high side condition met, low side condition not met

Before answering, review these 8 worked examples.
AGGUGCUACGGAAGGAGCGCACCAGUGAUGUUGGUGUGUGACCGUGACAUGGCAGUCAAGGUGCAGGUAGGUCGCCGUGGCCUUU [Geeseris]
condition not met
AACAAGGGAUGUCAGUGAUGUUGUACGUCGCGAGGACCGGUACGGCCGCCACUCGUAAUACACAGAUGAGGGUUCUUUCUCUGAU [theeternabot_sameState_KL_Trp_A_49]
condition not met
UACAUAUUAUUAUUUCUACAUUUAUUUAGUCAGGAUAUCGAUUAAACGAGAAGGGACAAUAUCAAGUGAUGUUUGAUAAUUCAAA [JR_SSFMNA_Sub022]
condition not met
GUCUGCGUCUCGGCCGCCACUCACUAGUGAUGUUAGUAAGGAGCGACUAGCGCAGUCCUGAAGAUGAGGACCGGGAGACGCAGGA [Exclusion Tryptophan B GF5]
condition not met
ACGCGCGCGAGUGAUGUUCGGAGCGGCUGGCAGGAUAUGUAGCAAUGCAGAAGGGUCGUGGCGGUGGGCGCGCAAGCGGCUGCCG [#2 Exclusion - FMN A Attempt #12 (HarryS)]
condition met
AUGUCUUAUAAACUCAUGGUUUCGACAGAUACCAGCUUCGAGAGGAGCCCUUGGCAGCUGCAUGAGUGAUGUUCAUGUACGAAGA [KL-XTheoA6]
condition met
GUCCCAGUGAUGUUGGUAGGCGGGCGGGAUACCAGCGAAGACUCACGCCCUUGGCAGCCCACAUAUCCCGCGUAGGGAUUAGCCC [Same State - Theophylline A (Freestyle 22)]
condition met
AAAAUAAAAGCAGUCAUCGGAGUGAUGUUCCGAGGACCGGUACGGCCGCCACUCGACCAGACAAAGUCUGGAUGGCGAGACUGCA [#SwitchBubble 18 #K4Early]
condition not met

## Task Form field: apparent KD of K4 kissing-loop reporter at least 200 nM? Entry: GCUAUGGUAGGAAGGAGCGCUUAUUUAUUUUUACGAGUGAUGUUCGGUAGUAGAUAGUUAAAGCAGGUAGGUCGCCUACUAUAGC [Arginine B K4 16]
## Result condition not met

## Task Form field: apparent KD of K4 kissing-loop reporter at least 200 nM? Entry: UUUAUGAGGUCGGCCGCCACUGGAUUUAUGUUUGUUUCGUCUGGAUCAAAGUGAUGUUUUGAGUCCAGGACCGGGACAUUUGUUA [whbob_Ex_Tryp_B_w40]
## Result condition not met

## Task Form field: apparent KD of K4 kissing-loop reporter at least 200 nM? Entry: AGCUAGUACGCAGGAUAUUGAACAUCAUUUAGUGAGAUCGAGUGAUGUUCGAUCACGACUUCAGUUCGAGAAGGGCGUACUAGCA [#02 K4 FMN B Same State]
## Result condition met

## Task Form field: apparent KD of K4 kissing-loop reporter at least 200 nM? Entry: UAAAUUAUCUGAAGGAGCGUGAAAUAAUAUUAAACAUAACAACCCAGUGAUGUUGGGUUAUCACAGGUAGGUCGCAGAUGUAGAU [Same State Arginie B GF 24]
## Result condition not met

## Task Form field: apparent KD of K4 kissing-loop reporter at least 200 nM? Entry: CGAGUGAUGUUCGUUUUUUAAUUUUUUUGACAGGAUAUGCGGAAACGCAGAAGGGUCACCUUUGAGUUAAAAGAAUUUAUUUUUU [Ex FMN A 17]
## Result condition met

## Task Form field: apparent KD of K4 kissing-loop reporter at least 200 nM? Entry: AGUGAUGUUGUGUUAUGUUUGGGAAGUGAUCGAGGACCGGUACGGCCGCCACUCGAGUGAUGAGUGAGUGAUGUUUGUUUAGGGA [whbob_SS_Tryp_A_m9]
## Result condition met

## Task Form field: apparent KD of K4 kissing-loop reporter at least 200 nM? Entry: UUGGCUGGACGGGAUACCAGCCAAAUCGUGUGCUUGGGAUGUCUAAGAGCCAGUGAUGUUGGCCCUUGGCAGCCCUCCCAGCUUG [Inontixe]
## Result condition not met
